Each item that follows carries a reported melting point.

Challenge: So what does the record say about melting point for `c1csc(-c2ccnc(-c3cc(-c4cccs4)ccn3)c2)c1` ?
Response given: > 250 °C

Challenge: So what does the record say about melting point for O=CCC1Cc2ccc(Cl)cc2C1=O (racemic) ?
Response given: 80 °C

New cases:
Challenge: So what does the record say about melting point for `COc1ccc(-c2ccc(-c3ccc(C(F)(F)F)cc3)nc2-c2ccc(OC)cc2)cc1` ?
Response given: 144 to 147 °C

Challenge: So what does the record say about melting point for CCS(=O)c1nc(N2CCNCC2)c2sc3nc(-c4ccccc4)cc(C)c3c2n1 (centres undefined) ?
Response given: 165 to 170 °C

Challenge: So what does the record say about melting point for `COc1ccc(OC)c(C(=O)c2cccc(OC)c2C(=O)O)c1` ?
Response given: 180 to 182 °C

Challenge: So what does the record say about melting point for `CCCCCCCN(CC)C(=O)CCCc1ccc(NS(C)(=O)=O)cc1` ?
Response given: 54 to 55 °C

Challenge: So what does the record say about melting point for `CC(C)(C)c1cc(Cl)n2ncnc2n1` ?
Response given: 285 to 286 °C

Challenge: So what does the record say about melting point for `COc1ccccc1-n1nccc1-c1nn(-c2cccc(C(F)(F)F)c2)ccc1=O` ?
Response given: 146 to 147 °C

Challenge: So what does the record say about melting point for `Cc1c(NC(=O)c2ccc(-c3ccc4c(c3)CCO4)cc2F)ccc2cc(CN3CCCCC3)cnc12` ?
Response given: 202 to 203 °C

Challenge: So what does the record say about melting point for `Cc1c(I)sc(I)c1Br` ?
Response given: 81 to 82 °C

Challenge: So what does the record say about melting point for `CC(C)c1ccc(NC(=O)N2CCc3cc(S(=O)(=O)N4CCN(c5cccc(Cl)c5)CC4)ccc32)cc1` ?
Response given: 182 °C

Challenge: So what does the record say about melting point for `COc1ccc(-c2cc(N)n[nH]2)cc1OC` ?
Response given: 124 to 125 °C

Challenge: So what does the record say about melting point for `COc1cc(Br)c(CCC#N)cc1OC` ?
Response given: 78 to 80 °C

Challenge: So what does the record say about melting point for `Nc1ncc(Oc2ccc(Cl)cc2)c(N2CCOCC2)n1` ?
Response given: 138 to 140 °C

Challenge: So what does the record say about melting point for `COc1ccc(Br)cc1-c1nc(N)nc(N)n1` ?
Response given: 294 to 297 °C

Challenge: So what does the record say about melting point for `COC(=O)CCn1c(=O)n(CCN2CCN(c3cccc(Cl)c3)CC2)c(=O)c2cscc21` ?
Response given: 150 °C

Challenge: So what does the record say about melting point for `COc1cc(N2CCCN(C3CCN(CCO)CC3)CC2)ccc1Nc1ncc2ccc(-c3ccccc3OC)n2n1` ?
Response given: 77 to 94 °C

Challenge: So what does the record say about melting point for `CC(=O)N1CCC(C)(C)c2cccc(CCCN3CCN(c4nsc5ccccc45)CC3)c21` ?
Response given: 109 °C

Challenge: So what does the record say about melting point for `CC(C)(Oc1ccc(C(=O)NCc2ccc(Cl)cc2)cc1)C(=O)O` ?
Response given: 180 °C

Challenge: So what does the record say about melting point for `Cc1cc2cc(C3CCN(C(=O)C4CC4)CC3)oc2cc1C` ?
Response given: 80 to 83 °C

Challenge: So what does the record say about melting point for `O=C1COc2cc(Sc3ccc(O)c(O)c3)ccc2N1` ?
Response given: 236 to 238 °C

Challenge: So what does the record say about melting point for `C=C(C(=O)c1ccc(C(=O)NCCN2CCOCC2)cc1)c1cc(OC)c(OC)c(-c2cccs2)c1` ?
Response given: 84 to 87 °C
